Parameter: Primary assay EC50 (cAMP), n1. Scope: all listed entries.
# measurement target: glucagon receptor (human, UniProt P47871 26-477)
# Sequence (P47871 26-477): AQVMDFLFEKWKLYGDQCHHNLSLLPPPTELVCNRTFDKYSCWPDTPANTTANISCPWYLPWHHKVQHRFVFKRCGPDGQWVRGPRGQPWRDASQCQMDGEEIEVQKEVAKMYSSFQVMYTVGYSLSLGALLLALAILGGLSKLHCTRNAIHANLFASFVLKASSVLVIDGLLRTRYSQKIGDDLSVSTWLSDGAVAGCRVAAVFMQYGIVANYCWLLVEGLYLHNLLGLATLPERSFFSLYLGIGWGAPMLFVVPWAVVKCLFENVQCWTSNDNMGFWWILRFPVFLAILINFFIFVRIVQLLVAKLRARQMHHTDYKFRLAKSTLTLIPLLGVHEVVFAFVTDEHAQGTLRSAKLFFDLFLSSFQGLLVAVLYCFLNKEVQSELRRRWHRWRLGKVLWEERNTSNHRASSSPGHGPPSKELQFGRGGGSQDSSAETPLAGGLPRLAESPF
# assay notes: cell-based or functional assay
Starred links: 1 amine or outer side, 2 acyl side, 3 side chain; linkers in the order of their positions; H or OH if unused. Non-standard residues stand in square brackets, D forms with d. Groups on a side chain read outwards from the residue. Primed or numbered codes have the meaning given here. No end group written: not given here. *: point of attachment. γGlu = O=C(O)[C@H](CCC(=O)[*:2])N[*:1]; Stearoyl = CCCCCCCCCCCCCCCCCC(=O)*; αMeF = C[C@](N)(Cc1ccccc1)C(=O)O; αMeK = C[C@](N)(CCCCN)C(=O)O; αMeS = C[C@](N)(CO)C(=O)O; PEG2′ = not defined here; Aib = CC(C)(N)C(=O)O
Please state the figure in nM; there is no need to write the unit.

Solved entries (count: 4):
H[Aib]EGS[αMeF]TSDV[αMeS]S[αMeF]LEGEAAK([PEG2′-PEG2′-γGlu-Stearoyl])EFIA[αMeF]VV[αMeK]GG-NH2 [SEQ ID NO 48]; 26
H[Aib]EGS[αMeF]TSDVSK([PEG2′-PEG2′-PEG2′-Stearoyl])YLEGEAAKE[αMeF]IA[αMeF]VVEGG-NH2 [SEQ ID NO 61]; 25
H[Aib]EGS[αMeF]TSDV[αMeS]S[αMeF]LEGEAAK([PEG2′-PEG2′-PEG2′-Stearoyl])E[αMeF]IA[αMeF]VVKGG-NH2 [SEQ ID NO 56]; 26
H[Aib]EGS[αMeF]TSDV[αMeS]S[αMeF]LEGEAAK([PEG2′-PEG2′-γGlu-Stearoyl])E[αMeF]IA[αMeF]VVKGG-NH2 [SEQ ID NO 50]; 26

Now turn to the next binder.
Look at this binder and give its reported Primary assay EC50 (cAMP), n1. H[Aib]EGS[αMeF]TSDV[αMeS]SYLEGEAAK([PEG2′-PEG2′-γGlu-Stearoyl])E[αMeF]IA[αMeF]VV[αMeK]GG-NH2 [SEQ ID NO 47]
25
